Test system: SR
Experiment: Growth inhibition of human SR cells after 48 hrs by cell counting analysis
Format: functional
Conditions: at 10 µM
In this section, each of the molecules is paired with its reported growth inhibition (GI).

Example entries and their recorded answers appear below.
# smiles.text, growth inhibition (GI)
data = [
    ("O=C(CCN1CCN(c2ccccc2)CC1)Nc1nc(-c2ccc(Cl)cc2)cs1", "<10%"),
    ("O=C(CN1CCN(c2ccccc2)CC1)Nc1nc(-c2ccc(Br)cc2)cs1", "<10%"),
    ("O=C(CCCl)Nc1nc(-c2ccc(Cl)cc2)cs1", "77.7%"),
    ("Cn1cc(NC(=O)c2cc(NC(=O)CNC(=N)N)cn2C)cc1C(=O)NCCC(=N)N", "<10%"),
    ("Cc1ccc(-c2csc(NC(=O)CCN3CCN(c4ccccc4)CC3)n2)cc1", "<10%"),
]

Task item: # get_value(readout='growth inhibition (GI)', item= `Cc1ccc(-c2csc(NC(=O)CCCl)n2)cc1` )
Reply: 88.5%

Task item: # get_value(readout='growth inhibition (GI)', item= `CN1CCN(CCC(=O)Nc2nc(-c3ccc(Br)cc3)cs2)CC1` )
Reply: <10%

Task item: # get_value(readout='growth inhibition (GI)', item= `O=C(CN1CCN(c2ccccc2)CC1)Nc1nc(-c2ccc(Cl)cc2)cs1` )
Reply: <10%

Task item: # get_value(readout='growth inhibition (GI)', item= `Cc1ccc(-c2csc(NC(=O)CN3CCN(C)CC3)n2)cc1` )
Reply: <10%

Task item: # get_value(readout='growth inhibition (GI)', item= `CN1CCN(CCC(=O)Nc2nc(-c3ccc(Cl)cc3)cs2)CC1` )
Reply: <10%

Task item: # get_value(readout='growth inhibition (GI)', item= `Cc1ccc(-c2csc(NC(=O)CN3CCN(c4ccccc4)CC3)n2)cc1` )
Reply: <10%

The measured values listed here are drawn from ChEMBL document CHEMBL2150993.
